- TARGET ENTITY: Protein arginine N-methyltransferase 1 (Homo sapiens)
- MEASUREMENT NOTES: human PRMT1 activity-probe blockers – biochemical, fluorescence polarization, primary screen (AID 652257)
- CONDITION DESCRIPTION: recombinant PRMT1, activity-based probe fluorescence polarization; at 2.79 µM; stronger effect = higher value
About 4,800 (1.3%) of roughly 370,000 compounds were called active. Only a selection was taken, and actives are over-represented in it overall.
METRIC NAME: inhibition (%)
Answers are plain numbers, in %.

Consider the worked cases shown below.
• CC(c1ccc(N)cc1)c1cn(C)c2ccccc12 (stereo unspecified) = -3.45
• COc1ccc(N2C(=O)C(O)C2c2ccc(C)cc2)cc1 (stereo unspecified) = 3.23
• CC(=O)Nc1ccc(N2C(=O)CC(Sc3nccc(C)n3)C2=O)cc1 (stereo unspecified) = 15.5

The following compounds each have a reported value; give each one's inhibition.
1. CCOC(=O)c1ccc(N2C(=O)CC(Sc3nc(O)c(CC)c(=O)[nH]3)C2=O)cc1 (stereo unspecified)
2. Cc1ccnc(SC2CC(=O)N(c3ccccc3)C2=O)n1 (stereo unspecified)
3. Cc1ccc(C)c(S(=O)(=O)N(C)c2ccc(OC(=O)C3CCN(C(=O)c4ccc(F)cc4)CC3)cc2)c1

RESULT:
[-0.27, 8.05, 0.47]
